Tested on: 126254-015-R-J1-PDC complex spheroid growth, % test/control;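 also: spheroids exposed to compound for seven days; 100% = DMSO vehicle control wells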
Assay: Anticancer human tumor 126254-015-R-J1-PDC patient-derived soft tissue sarcoma cell line growth inhibition [Asc]
Settings: second compound 0.1 µM; first compound 0.1 µM; hits give low values
OUTCOME MEASURE: viability, T/C (%)
Expressed in %, but write only the number.

The examples below pair each entry with its known result.
MOLECULE	ENDPOINT VALUE
C=C(F)C(=O)N1CCN(c2nc(OCC3CCCN3C)nc3c2CCN(c2cccc4cccc(Cl)c24)C3)CC1CC#N (configuration not stated) + Cc1c(S(C)(=O)=O)c(-c2cc(F)cc(N3CCN(c4ccc(NS(=O)(=O)c5ccc(NC(CCN6CCC(C(=O)OCCCP(=O)(O)O)CC6)CSc6ccccc6)c(S(=O)(=O)C(F)(F)F)c5)cc4)CC3)c2)c(-c2ccc(Cl)cc2)n1C(C)C	97.2
O=C(c1cc(Cc2n[nH]c(=O)c3ccccc23)ccc1F)N1CCN(C(=O)C2CC2)CC1 + Cc1c(S(C)(=O)=O)c(-c2cc(F)cc(N3CCN(c4ccc(NS(=O)(=O)c5ccc(NC(CCN6CCC(C(=O)OCCCP(=O)(O)O)CC6)CSc6ccccc6)c(S(=O)(=O)C(F)(F)F)c5)cc4)CC3)c2)c(-c2ccc(Cl)cc2)n1C(C)C	81.8
Cn1ncnc1[C@H]1c2n[nH]c(=O)c3cc(F)cc(c23)N[C@@H]1c1ccc(F)cc1 + Cc1c(S(C)(=O)=O)c(-c2cc(F)cc(N3CCN(c4ccc(NS(=O)(=O)c5ccc(NC(CCN6CCC(C(=O)OCCCP(=O)(O)O)CC6)CSc6ccccc6)c(S(=O)(=O)C(F)(F)F)c5)cc4)CC3)c2)c(-c2ccc(Cl)cc2)n1C(C)C	65.2
CCN1CCN(Cc2ccc(Nc3ncc(F)c(-c4cc(F)c5nc(C)n(C(C)C)c5c4)n3)nc2)CC1 + CNC(C)C(=O)NC1CN(S(=O)(=O)c2cccc(S(=O)(=O)N3CCC4CCC(C(=O)NC(c5ccccc5)c5ccccc5)N4C(=O)C(NC(=O)C(C)NC)C3)c2)CCC2CCC(C(=O)NC(c3ccccc3)c3ccccc3)N2C1=O	69
NC1CCC(NC2CC2c2ccccc2)CC1 (configuration not stated) + CNC(C)C(=O)NC1CN(S(=O)(=O)c2cccc(S(=O)(=O)N3CCC4CCC(C(=O)NC(c5ccccc5)c5ccccc5)N4C(=O)C(NC(=O)C(C)NC)C3)c2)CCC2CCC(C(=O)NC(c3ccccc3)c3ccccc3)N2C1=O	68
CCN1CCN(Cc2ccc(Nc3ncc(F)c(-c4cc(F)c5nc(C)n(C(C)C)c5c4)n3)nc2)CC1 + Cc1c(S(C)(=O)=O)c(-c2cc(F)cc(N3CCN(c4ccc(NS(=O)(=O)c5ccc(NC(CCN6CCC(C(=O)OCCCP(=O)(O)O)CC6)CSc6ccccc6)c(S(=O)(=O)C(F)(F)F)c5)cc4)CC3)c2)c(-c2ccc(Cl)cc2)n1C(C)C	90.1

Consider the record given below.
Please list viability, T/C recorded for the molecule C=CC(=O)N1CCN(c2nc(=O)n(-c3c(C)ccnc3C(C)C)c3nc(-c4c(O)cccc4F)c(F)cc23)C(C)C1 (configuration not stated) + CNC(C)C(=O)NC1CN(S(=O)(=O)c2cccc(S(=O)(=O)N3CCC4CCC(C(=O)NC(c5ccccc5)c5ccccc5)N4C(=O)C(NC(=O)C(C)NC)C3)c2)CCC2CCC(C(=O)NC(c3ccccc3)c3ccccc3)N2C1=O
78
